assay: Phase 1 Study ABI-1648-006, single oral dose pharmacokinetics; details: female, human, plasma, po, 2.5 mg, Elimination t1/2 Mean, females, single oral dose 2.5 mg

molecule	unitName	half-life
CO[C@H]1/C=C/O[C@@]2(C)Oc3c(C)c(O)c4c(=O)c(c5oc6cc(N7CCN(CC(C)C)CC7)cc(O)c6nc-5c4c3C2=O)NC(=O)/C(C)=C\C=C\[C@H](C)[C@H](O)[C@@H](C)[C@@H](O)[C@@H](C)[C@H](OC(C)=O)[C@@H]1C [rifalazil]	days	5.55

----------
test: Phase 1 Study ABI-1648-006, single oral dose pharmacokinetics; conditions: male, human, plasma, po, 25 mg

structureSmiles	unitName	CL/F
CO[C@H]1/C=C/O[C@@]2(C)Oc3c(C)c(O)c4c(=O)c(c5oc6cc(N7CCN(CC(C)C)CC7)cc(O)c6nc-5c4c3C2=O)NC(=O)/C(C)=C\C=C\[C@H](C)[C@H](O)[C@@H](C)[C@@H](O)[C@@H](C)[C@H](OC(C)=O)[C@@H]1C	mL/min/kg	8
